Recorded normalized growth for the following compounds
Experiment: chemical genetic growth profiling, strain panel (AID 1159580);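 further: tested at 20 µM; growth read once vehicle control cultures reached saturation at 30 °C; 1 = growth at the plate median or of vehicle wells; lower values mean less growth of the strain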
Settings: S. cerevisiae deletion strains, growth OD, locus YJL168C, strain set2, active compounds read low
Out of some 5,500 compounds screened, about 2,000 (36%) were called active. Another 18% or so got no clear call; they are omitted. The list shows a part of the results.
measured endpoint: normalized growth

[[record]]
compound = "CC(=O)O[C@H]1CC[C@@]2(C)C(=CCC3C2CC[C@]2(C)C(=O)CCC32)C1 (stereo not given in full)"
recorded_result = 1.02

[[record]]
compound = "NC(=O)c1cc[n+](CC2=C(C(=O)O)N3C(=O)C(NC(=O)C(c4ccccc4)S(=O)(=O)[O-])C3SC2)cc1 (stereo not given)"
recorded_result = 0.998

[[record]]
compound = "CC(=O)O[C@H]1CC[C@@]2(C)C(=CCC3C2CC[C@@]2(C)C3CC[C@@H]2C(C)CCCC(C)C)C1 (stereo not given in full)"
recorded_result = 1.02

[[record]]
compound = "CC1(C)CC2C1CCC1(C)OC1CCC2(C)O (stereo not given)"
recorded_result = 1.02

[[record]]
compound = "CC12CCC3C(CC=C4CC(O)CCC43C)C1CCC2=O (stereo not given)"
recorded_result = 1.04

